Test system UniProtKB O00519, pIC50 listed for each of the compounds.
Sequence (O00519 whole entry): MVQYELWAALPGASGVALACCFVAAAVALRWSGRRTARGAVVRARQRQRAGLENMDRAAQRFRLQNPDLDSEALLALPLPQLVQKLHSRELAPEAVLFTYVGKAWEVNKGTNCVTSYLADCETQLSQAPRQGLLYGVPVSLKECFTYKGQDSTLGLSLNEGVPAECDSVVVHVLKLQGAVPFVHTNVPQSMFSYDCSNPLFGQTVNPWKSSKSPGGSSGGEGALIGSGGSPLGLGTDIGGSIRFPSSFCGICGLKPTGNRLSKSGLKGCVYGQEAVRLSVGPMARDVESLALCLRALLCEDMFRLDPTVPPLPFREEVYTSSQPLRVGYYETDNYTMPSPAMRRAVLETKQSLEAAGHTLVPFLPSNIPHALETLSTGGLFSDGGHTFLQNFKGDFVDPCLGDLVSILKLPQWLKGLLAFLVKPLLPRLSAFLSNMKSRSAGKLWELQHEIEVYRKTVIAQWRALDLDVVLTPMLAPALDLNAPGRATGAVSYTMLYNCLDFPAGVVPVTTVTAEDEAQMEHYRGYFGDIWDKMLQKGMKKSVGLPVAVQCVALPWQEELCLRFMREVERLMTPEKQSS
Reminder that pIC50 is minus the log10 of a molar concentration.

1) N#Cc1ccncc1NC(=O)N1CC2(CCN(Cc3cccc(Oc4ccc(Cl)cc4)c3)CC2)C1; 6.41
2) O=C(Nc1ccc(-n2cccn2)nc1)N1CC2(CCN(Cc3cccc(Oc4ccc(Cl)cc4)c3)CC2)C1; 7.37
3) O=C(Nc1cncc(Cl)c1)N1CC2(CCN(Cc3cccc(Oc4ccc(Cl)cc4)c3)CC2)C1; 6.56

Would you kindly look at the next entry?
### Prompt Please look up its pIC50: "O=C(Nc1cccnc1Cl)N1CC2(CCN(Cc3cccc(Oc4ccc(Cl)cc4)c3)CC2)C1"
### Response 6.61
